Measured remaining at 6 h by item
# Procedure details: Stability in Swiss Webster mouse serum assessed as functional compound remaining after 6 hrs
# Assay type: ADME, cell-free
# Details: read-out: Stability
Bridge positions count the residues as written; N and C are the ends. Peptide text beside a SMILES is read from it. * marks the point of attachment. X1 = O=C(COCC(=O)*)Nc1ccc(CCC(=O)N2CCC2=O)cc1
Your answer should be a plain number; it is taken to be in %.

CSCC[C@H](NC(=O)[C@@H](NC(=O)[C@H](CCCCNC(=O)COCC(=O)Nc1ccc(CCC(=O)N2CCC2=O)cc1)NC(=O)[C@@H]1CSSC[C@H](NC(=O)[C@@H](NC(=O)[C@H](CC(=O)O)NC(=O)[C@H](Cc2ccccc2)NC(C)=O)C(C)C)C(=O)N[C@@H](CC(N)=O)C(=O)N[C@@H](Cc2c[nH]c3ccccc23)C(=O)N[C@@H](C(C)C)C(=O)N[C@@H]([C@@H](C)O)C(=O)N[C@@H](CC(C)C)C(=O)N2CCC[C@H]2C(=O)N[C@@H](Cc2cnc[nH]2)C(=O)N1)C(C)C)C(N)=O (Ac-FDVCNWVTLPHCK(X1)VM-NH2; disulfide 4-12): 11
CC[C@H](C)[C@@H]1NC(=O)[C@H](Cc2ccc(O)cc2)NC(=O)[C@H](Cc2cnc[nH]2)NC(=O)[C@@H](NC(=O)[C@@H](NC(=O)[C@H](CCC(=O)O)NC(=O)[C@H](Cc2ccccc2)NC(C)=O)C(C)C)CSSC[C@@H](C(=O)N[C@H](C(=O)N[C@@H](CCCN=C(N)N)C(=O)N[C@@H](Cc2ccc(O)cc2)C(N)=O)[C@@H](C)O)NC(=O)[C@H](Cc2cnc[nH]2)NC(=O)[C@@H]2CCCN2C(=O)[C@H](CC(C)C)NC(=O)[C@H](CCCCNC(=O)COCC(=O)Nc2ccc(CCC(=O)N3CCC3=O)cc2)NC1=O: 4

Tell me measured remaining at 6 h for CSCC[C@H](NC(=O)[C@@H](NC(=O)[C@H](CCCCNC(C)=O)NC(=O)[C@@H]1CSSC[C@H](NC(=O)[C@@H](NC(=O)[C@H](CC(=O)O)NC(=O)[C@H](Cc2ccccc2)NC(C)=O)C(C)C)C(=O)N[C@@H](CC(N)=O)C(=O)N[C@@H](Cc2c[nH]c3ccccc23)C(=O)N[C@@H](C(C)C)C(=O)N[C@@H](CCCCNC(=O)COCC(=O)Nc2ccc(CCC(=O)N3CCC3=O)cc2)C(=O)N[C@@H](CC(C)C)C(=O)N2CCC[C@H]2C(=O)N[C@@H](Cc2cnc[nH]2)C(=O)N1)C(C)C)C(N)=O (Ac-FDVCNWVK(X1)LPHCK(Ac)VM-NH2; disulfide 4-12) please.
20
